# System: 7G8
# testName: qHTS profiling for inhibitors of Plasmodium falciparum proliferation (AID 504749); note: nearly all actives have a fitted effect of over 60% in size; note: potency is the fitted concentration of half-maximal effect
# testParameters: P. falciparum in erythrocytes, SYBR Green DNA, 72 h; series mostly up to 28.7 µM
# Procedure: NIH National Institute of Allergy and Infectious Diseases [NIAID] NIH Chemical Genomics Center [NCGC] […] Because mature erythrocytes lack DNA, only Plasmodium-derived DNA is detected. NCGC Assay Protocol Summary: The SYBR Green viability assay was adapted from a method described previously (Plouffe et al., 2008). […] The following morning, fluorescence intensity at 485(14) nm excitation and 535(25) nm emission wavelengths was measured on an EnVision (Perkin Elmer) plate reader. […]
Results filed as inconclusive are left out. Active and inactive are the calls of the source. Calls come from the whole dose curve; as a rule, active = well fitted inhibition curve with a large enough effect; inconclusive = small, poorly fitted or top-dose-only effect; inactive = flat fitted curve, though single readings scatter.
readoutKind: Potency

{"molecule": "C[C@H]1C[C@@H]2[C@H]3CCC4=CC(=O)C=C[C@@]4(C)[C@@]3(Cl)[C@@H](O)C[C@]2(C)[C@]1(OC(=O)c1ccco1)C(=O)CCl", "readoutKind": "Potency", "assayValue": "1.78 µM (active)"}
{"molecule": "COc1cc2nc(N(C)CCCNC(=O)[C@@H]3CCCO3)nc(N)c2cc1OC", "readoutKind": "Potency", "assayValue": "inactive"}
{"molecule": "OC[C@H](S)CS", "readoutKind": "Potency", "assayValue": "0.891 µM (active)"}
{"molecule": "O=C(O)[C@@H](S)[C@H](S)C(=O)O", "readoutKind": "Potency", "assayValue": "5.01 µM (active)"}
{"molecule": "CC(=O)N1CCN(c2ccc(OC[C@@H]3CO[C@@](Cn4ccnc4)(c4ccc(Cl)cc4Cl)O3)cc2)CC1", "readoutKind": "Potency", "assayValue": "11.2 µM (active)"}
{"molecule": "CN1[C@@H]2CC(OC(=O)[C@@H](CO)c3ccccc3)C[C@@H]1[C@H]1O[C@H]12 (some centres undefined)", "readoutKind": "Potency", "assayValue": "inactive"}
{"molecule": "C[C@]12CC[C@H]3c4ccc(O)cc4CC[C@@H]3[C@H]1CC[C@@H]2OP(=O)(O)O", "readoutKind": "Potency", "assayValue": "inactive"}
{"molecule": "CCc1ccc2c(c1)N(C[C@H](C)CN(C)C)c1ccccc1S2", "readoutKind": "Potency", "assayValue": "10 µM (active)"}

Next up:
Q) Given the entry "CN(C)[C@H]1C(=O)C(C(=O)NCN2CCCC2)=C(O)[C@]2(O)C(=O)C3=C(O)c4c(O)cccc4[C@](C)(O)[C@H]3C[C@H]12" , report its measured Potency.
A) inactive

* * *

# testName: qHTS assay for environmental chemicals that activate the Aryl hydrocarbon Receptor (AhR) signaling pathway (AID 651777); note: % of control where 0% means no effect; nearly all actives have a fitted effect of over 15% in size
# testParameters: 1A2-DRE human hepatoma cells, luciferase, 24 h; hits give high values
# Description: National Center for Advancing Translational Sciences [NCATS] NIH Chemical Genomics Center [NCGC] U.S. Environmental Protection Agency [EPA] National Institutes of Environmental Health Sciences [NIEHS] National Toxicology Program [NTP] The Aryl hydrocarbon Receptor (AhR) plays a critical role in the development of cancer or neoplasm and its formation is most likely due to genetic mutations and the influence of environment. […]
Inconclusive results are not listed.
readoutKind: activation (%)
// note: answer is a bare numeric in %

Q) Could you share which activation value was measured for "C/C=C/C=C/C=O" ?
A) 0.0819

Q) Same question, CCC(Cl)CC(Cl)C(Cl)C(Cl)C(Cl)C(C)Cl (stereo not drawn) this time
A) -0.274

Q) Could you do the same for "S=C(NC1CCCCC1)NC1CCCCC1" , please?
A) 5.57

Q) Likewise for "c1c[nH]cn1" ?
A) -1.48

Q) Request: "C=C(C#N)C(=O)OCC"
A) -0.801

Q) How about C[C@@H]1CC2(OC(O)[C@]3(C)O[C@H]23)O[C@H]2C[C@@]3(C)[C@@H]4CC[C@H]5C(C)(C)C(O[C@@H]6OC[C@@H](O)[C@H](O)[C@H]6O)CC[C@@]56C[C@@]46CC[C@]3(C)[C@@H]12 (stereo partly drawn) ?
A) 0.629

Q) Another molecule to check: "c1cc2c3c(c1)ccc1cccc(c13)C2"
A) -0.581

Q) Can you handle "c1ccc(SCCSc2ccccc2)cc1" next?
A) 14.7

Q) Okay, and "COc1ccc(C)cc1N" ?
A) 3.33

Q) Also "Cc1ccc(C(=O)O)cc1[N+](=O)[O-]" ?
A) -0.0314

Q) Request: CC(=O)OC(C(=O)c1ccccc1)c1ccccc1 (stereo not drawn)
A) -0.426

Q) "O=[N+]([O-])c1cccc(I)c1" , same question.
A) 0.159

Q) Field entry: "Cc1cc(-c2ccc(N=Nc3cc(S(=O)(=O)O)c4ccccc4c3N)c(C)c2)ccc1N=Nc1cc(S(=O)(=O)O)c2ccccc2c1N"
A) 0.307

Q) Further, for C=CC1CO1 (stereo not drawn) ?
A) -0.433

Q) Same read-out for CCCCCCCCC1CO1 (stereo not drawn) ?
A) 0.826

Q) Also need "CCNC(=S)NCC" , thanks.
A) 1.67

Q) Now consider "CC(=O)OCc1ccc2c(c1)OCO2" .
A) 1.36

Q) Another: C=CC(C)(O)CCCC(C)CCCC(C)CCCC(C)C (stereo not drawn)
A) -0.417

Q) Now consider "O=CC(=O)c1ccccc1" and answer again.
A) 0.568

Q) Let us now turn to "CC(/C=C/C=C(C)/C=C/C(=O)O)=C\C=C\C=C(C)\C=C\C=C(C)\C=C\C(=O)O"
A) 9.06

Q) Can you check "Brc1ccc(-c2ccccc2)cc1" next?
A) 11.7

Q) Now this one: CCOC(=O)C1OC1c1ccccc1 (stereo not drawn)
A) -0.0092

Q) Same again, this time with O=C(OCC1CO1)C1CCCCC1C(=O)OCC1CO1 (stereo not drawn)
A) 0.749

Q) Next record, please: "CC(=O)Nc1cccc(C)c1"
A) 0.306

Q) Also check "Cc1ccc(S(N)(=O)=O)cc1"
A) -0.842

Q) // next record Cc1ccccc1OCC1CO1 (stereo not drawn)
A) -0.0777

Q) Same thing, different molecule: "Nc1ccc(-c2ccc(N)c(O)c2)cc1O"
A) -0.254

Q) # repeat for "C[Si](C)(C)Cl"
A) 1.28

* * *

# Tested on: 3D7
# testName: qHTS profiling for inhibitors of Plasmodium falciparum proliferation (AID 504749); note: nearly all actives have a fitted effect of over 60% in size
# testParameters: P. falciparum in erythrocytes, SYBR Green DNA, 72 h; series mostly up to 28.7 µM
Results filed as inconclusive are left out. Calls of active or inactive are those of the source. The call rests on the fitted dose curve; in most records, active means well fitted inhibition curve with a large enough effect; inconclusive means small, poorly fitted or top-dose-only effect; inactive means flat fitted curve, though single readings scatter.
Answer with one of the outcomes given here: y for active, n for inactive

Q) Could you check what this test reported for CN1[C@@H]2CC(OC(=O)[C@@H](CO)c3ccccc3)C[C@@H]1[C@H]1O[C@H]12 (stereo partly specified) ?
A) n

Q) # repeat for "N[C@@H](Cc1ccccc1)C(=O)O"
A) n

Q) Now the same for "O=C(O)[C@@H](O)[C@@H](O)[C@H](O)C(=O)CO"
A) n

Q) "CC(C)(C)NC[C@@H](O)c1ccc(O)c(CO)n1" , same question.
A) n

Q) Continue with "OC[C@H](S)CS"
A) y

Q) What about "CC1(C)S[C@@H]2[C@H](NC(=O)Cc3ccccc3)C(=O)N2[C@@H]1C(=O)O" ?
A) n

* * *

# System: P94_40
# testName: qHTS profiling for inhibitors of Plasmodium falciparum proliferation (AID 504749); note: nearly all actives have a fitted effect of over 60% in size
# testParameters: P. falciparum in erythrocytes, SYBR Green DNA, 72 h; series mostly up to 28.7 µM
Inconclusive results are not listed. Active and inactive are the calls of the source. The call rests on the fitted dose curve; in most records, active means well fitted inhibition curve with a large enough effect; inconclusive means small, poorly fitted or top-dose-only effect; inactive means flat fitted curve, though single readings scatter.
readoutKind: outcome

{"compound": "CO/N=C(\\C(=O)N[C@@H]1C(=O)N2C(C(=O)[O-])=C(C[N+]3(C)CCCC3)CS[C@@H]12)c1csc(N)n1", "outcome": "inactive"}
{"compound": "Cc1c(C(=O)O)c(O)cc2c1C(=O)c1c(O)c([C@H]3O[C@H](CO)[C@@H](O)[C@H](O)[C@H]3O)c(O)c(O)c1C2=O", "outcome": "inactive"}
{"compound": "COc1cccc2c1C(=O)c1c(O)c3c(c(O)c1C2=O)C[C@](O)(C(=O)CO)C[C@@H]3O[C@H]1C[C@H](N)[C@@H](O)[C@H](C)O1", "outcome": "inactive"}
{"compound": "C(=C/c1ccccc1)/CN1CCN(C(c2ccccc2)c2ccccc2)CC1", "outcome": "inactive"}
{"compound": "OC[C@H](S)CS", "outcome": "inactive"}

Q) API: value(readout= outcome, system= P94_40, query= C[N+]1(C)[C@@H]2CC(OC(=O)[C@@H](CO)c3ccccc3)C[C@@H]1[C@H]1O[C@H]12 (stereo partly drawn) )
A) inactive

Q) Same again, this time with "CN(C)[C@H]1C(=O)C(C(=O)NCN2CCCC2)=C(O)[C@]2(O)C(=O)C3=C(O)c4c(O)cccc4[C@](C)(O)[C@H]3C[C@H]12"
A) inactive

Q) Another compound to check: "CC1(C)S[C@@H]2[C@H](NC(=O)Cc3ccccc3)C(=O)N2[C@@H]1C(=O)O"
A) inactive
